experimental details: chemical genetic growth profiling, strain panel (AID 1159580);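 also: tested at 20 µM; growth read once vehicle control cultures reached saturation at 30 °C; 1 = growth at the plate median or of vehicle wells; lower values mean less growth of the strain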
experimental context: S. cerevisiae deletion strains, growth OD, locus YOR231W, strain MKK1, hits give low values
The campaign covered roughly 5,500 compounds. About 2,000 (36%) were called active. About 18% were inconclusive and are not listed. The list shows a part of the results. Where a SMILES comes first, the peptide text is derived from it. Bridges are numbered along the chain shown (N, C = ends). [ ]: non-standard residue; d: D form. The star is where a group is joined. Heptanoyl(6-Me) = CC(C)CCCCC(=O)*; Dab = NCC[CH](N)C(=O)O
Measured normalized growth accompanies every entry in the list below.
I only need the number, thanks.

Guide cases for normalized growth, answers given:
molecule	normalized growth
CCCCCCCCCCCCCCCCCCCCCCO	0.99
N[C@@H]1CONC1=O	1.04
COc1ccc2cc3[n+](cc2c1OC)CCc1cc2c(cc1-3)OCO2	0.822
CCC(C)C1NC(=O)C(CCN)NC(=O)C(NC(=O)C(CCN)NC(=O)C(NC(=O)C(CCN)NC(=O)CCCCC(C)C)C(C)O)CCNC(=O)C(C(C)O)NC(=O)C(CCN)NC(=O)C(CCN)NC(=O)C(C(C)CC)NC1=O (stereo unspecified) ({Heptanoyl(6-Me)}-[Dab]T[Dab][Dab][Dab]II[Dab][Dab]T; lactam 4-C; configuration not given here)	0.971
Nc1nnc(-c2cccc(Cl)c2Cl)c(N)n1	1.01

IN: normalized growth for "COc1cc2c3cc1Oc1cc(ccc1O)C[C@@H]1c4c(cc(OC)c(O)c4Oc4ccc(cc4)C[C@@H]3N(C)CC2)CC[N+]1(C)C" ?
OUT: 0.996

IN: # iterate: CCCCOc1cc(CC2CNC(=O)N2)ccc1OC (stereo unspecified)
OUT: 0.976

IN: # iterate: "O=C(O)c1cn(-c2ccc(F)cc2)c2cc(N3CCNCC3)c(F)cc2c1=O"
OUT: 1.01

IN: # iterate: "CC(C)(C)c1csc(NC(=O)c2ccc(Cl)cc2Cl)n1"
OUT: 0.898

IN: # iterate: CC(=O)O[C@@H]1CC2C(C)(C)C(=O)CC[C@]2(C)C2CC[C@@]3(C)[C@H](c4ccoc4)OC(=O)C4OC43[C@@]21C (stereo partly specified)
OUT: 1.01

IN: # iterate: "CCN1CCN(c2cc3c(cc2F)c(=O)c(C(=O)O)cn3C2CC2)CC1"
OUT: 0.981

IN: # iterate: "O=C(CSCc1nc(-c2ccc(Cl)cc2)cs1)N/N=C\c1cccs1"
OUT: 0.927

IN: # iterate: "O=C(NNC(=O)c1csc(-c2cccs2)n1)c1ccc(C(F)(F)F)cc1"
OUT: 0.29

* * *

experimental details: chemical genetic growth profiling, strain panel (AID 1159580)
experimental context: S. cerevisiae deletion strains, growth OD, locus YLR342W, strain FKS1 (second series), hits give low values
Out of some 5,500 compounds screened, about 2,000 (36%) were called active. About 18% were inconclusive and are not listed. The list shows a part of the results.
quantity kind: normalized growth
I only need the number, thanks.

IN: normalized growth for "Clc1ccc(Cl)cc1" ?
OUT: 0.997

IN: # iterate: CC(=O)CC(c1ccccc1)c1c(O)c2ccccc2oc1=O (stereo not drawn)
OUT: 1.02

IN: # iterate: "ClC(Cl)=C(c1ccc(Cl)cc1)c1ccc(Cl)cc1"
OUT: 0.879

* * *

experimental details: chemical genetic growth profiling, strain panel (AID 1159580)
experimental context: S. cerevisiae deletion strains, growth OD, locus YLL026W
Hit rate of the full screen: of about 5,500 compounds, about 2,000 (36%) were called active. Roughly 18% stayed inconclusive and do not appear here. Cut-off read from the data, not from the text of the source: active = normalized growth mostly below about 0.91 (no sharp cut-off); inconclusive = no clear call, values can overlap the other calls; inactive = mostly above about 0.92. This is one part of the list.
The reply should name one outcome from Y for active, N for inactive

IN: Record request — test call for "O=C(O)c1cc(=O)c2ccccc2o1"
OUT: N

IN: # iterate: CC(=O)O[C@H]1C[C@H](O[C@H]2[C@@H](O)C[C@H](O[C@H]3[C@@H](O)C[C@H](O[C@H]4CC[C@@]5(C)C(CCC6C5C[C@@H](O)[C@]5(C)[C@@H](C7=CC(=O)OC7)CC[C@]65O)C4)O[C@@H]3C)O[C@@H]2C)O[C@H](C)[C@H]1O[C@@H]1O[C@H](CO)[C@@H](O)[C@H](O)[C@H]1O (some centres not stated)
OUT: N

IN: # iterate: "Cn1c(=O)c2[nH]c(C3CCCC3)nc2n(C)c1=O"
OUT: N

IN: # iterate: "O=c1[nH]c2cc(Cl)c(Cl)cc2[nH]c1=O"
OUT: N

IN: # iterate: COCCOC(=O)C1=C(C)NC(C)=C(C(=O)OC(C)C)C1c1cccc([N+](=O)[O-])c1 (configuration not stated)
OUT: N

IN: # iterate: "CC(C)=CCc1c2c(c(O)c3c(=O)c(O)c(-c4ccccc4)oc13)C=CC(C)(C)O2"
OUT: N

* * *

experimental details: chemical genetic growth profiling, strain panel (AID 1159580);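 also: tested at 20 µM; growth read once vehicle control cultures reached saturation at 30 °C; 1 = growth at the plate median or of vehicle wells; lower values mean less growth of the strain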
experimental context: S. cerevisiae deletion strains, growth OD, locus YER133W, strain GLC7, hits give low values
Screen size: about 5,500 compounds; about 2,000 (36%) were called active. About 18% were inconclusive and are not listed. The list shows a part of the results.
quantity kind: normalized growth
I only need the number, thanks.

compound	meas value
CC(C)(C)c1cc2nc(C(F)(F)F)cc(NNC(=O)c3ccc(Cl)cc3)n2n1	1.03
Cc1ccc(C(=O)O/N=C(/N)CSc2ncccc2C(F)(F)F)cc1	0.976
C/C(=N/Nc1nc(C(C)(C)C)cs1)c1ccc(Cl)c(Cl)c1	0.943
Cc1ccc2c(c1)CCCN2CC(=O)N(c1ccccc1)C1CCCCC1	0.951
CC(C)(C)c1csc(NC(=O)Nc2ccc(Cl)cc2)n1	0.534

IN: normalized growth for "CCn1nc(C)cc1-c1nnc(Sc2ncc([N+](=O)[O-])s2)n1C" ?
OUT: 0.995

* * *

experimental details: chemical genetic growth profiling, strain panel (AID 1159580);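 also: tested at 20 µM; growth read once vehicle control cultures reached saturation at 30 °C; 1 = growth at the plate median or of vehicle wells; lower values mean less growth of the strain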
experimental context: S. cerevisiae deletion strains, growth OD, locus YER110C, hits give low values
In all, about 5,500 compounds went through this assay and about 2,000 (36%) were called active. Roughly 18% stayed inconclusive and do not appear here. This is one part of the list.
Response field label takes satisfied when normalized growth is strictly below 1 and not satisfied in all other cases.

Example entries begin here.
compound	assigned class
O=c1c(-c2ccccc2)coc2cc(O)cc(O)c12	satisfied
O=C1c2c(O)ccc(O)c2C(=O)c2c(NCCNCCO)ccc(NCCNCCO)c21	not satisfied
C=CCCCCCCCCCCCC(O)CC(O)CO (stereo unspecified) (tested in a mixture with another compound)	satisfied
CC(C)Oc1ccc2c(=O)cc(-c3ccccc3)oc2c1	satisfied

For the next question, use this compound.
IN: Just wondering, is normalized growth of "O=c1c(-c2ccc(O)cc2)coc2cc(O)cc(O)c12" below 1?
OUT: not satisfied

* * *

experimental details: chemical genetic growth profiling, strain panel (AID 1159580);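 also: tested at 20 µM; growth read once vehicle control cultures reached saturation at 30 °C; 1 = growth at the plate median or of vehicle wells; lower values mean less growth of the strain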
experimental context: S. cerevisiae deletion strains, growth OD, locus YNR052C, strain pop2, hits give low values
The whole screen tested about 5,500 compounds, of which about 2,000 (36%) were called active. About 18% were inconclusive and are not listed. The list shows a part of the results.
quantity kind: normalized growth

Guide cases for normalized growth, answers given:
compound	normalized growth
C=CCCCCCCCCCCCC(O)CC(O)CO (configuration not stated)	0.946 (inactive)
Nc1nc(N)c2nc(-c3ccccc3)c(N)nc2n1	1.01 (inactive)
Nc1ccc(C(=O)Oc2ccccc2)c(O)c1	0.883 (active)
COc1cc2cc[n+]3cc4c(OC)c(OC)ccc4cc3c2cc1OC	0.98 (inactive)
CC1(C)O[C@@H]2CC3C4C[C@H](F)C5=CC(=O)C=C[C@]5(C)[C@@]4(F)[C@@H](O)C[C@]3(C)[C@]2(C(=O)CO)O1 (some centres not stated)	1.01 (inactive)

IN: normalized growth for Nc1ccc(C(=O)O)c(O)c1 (tested in a mixture with another compound) ?
OUT: 0.991 (inactive)

IN: # iterate: "COc1ccc(-c2cc(=O)c3cc(OC)ccc3o2)cc1"
OUT: 1.02 (inactive)

IN: # iterate: "O=c1oc2ccccc2c(O)c1Cc1c(O)c2ccccc2oc1=O"
OUT: 0.97 (inactive)

IN: # iterate: "O=c1c(-c2cc(O)c(O)c(O)c2)coc2cc(O)c(O)c(O)c12"
OUT: 0.695 (active)

IN: # iterate: "O=c1c2ccccc2[se]n1-c1ccccc1"
OUT: 0.851 (active)

IN: # iterate: "O=C(O)/C=C(\CC(=O)O)C(=O)O"
OUT: 0.971 (inactive)

IN: # iterate: C#CCOS(=O)OC1CCCCC1Oc1ccc(C(C)(C)C)cc1 (configuration not stated)
OUT: 0.987 (inactive)

IN: # iterate: "CC(=O)Nc1ccc(OC(=O)c2ccccc2O)cc1"
OUT: 0.98 (inactive)

IN: # iterate: CCN(CCCCOC(=O)c1ccc(OC)c(OC)c1)C(C)Cc1ccc(OC)cc1 (configuration not stated)
OUT: 1.01 (inactive)

IN: # iterate: CC(=O)CC(c1ccccc1)c1c(O)c2ccccc2oc1=O (configuration not stated)
OUT: 1.03 (inactive)

IN: # iterate: CCC(CCC(C)[C@H]1CCC2C3CC=C4C[C@@H](O)CC[C@]4(C)C3CC[C@@]21C)C(C)C (some centres not stated)
OUT: 0.973 (inactive)

IN: # iterate: COC(=O)C1=C(C)NC(C)=C(C(=O)OCCN(C)Cc2ccccc2)C1c1cccc([N+](=O)[O-])c1 (configuration not stated)
OUT: 0.999 (inactive)

IN: # iterate: Cn1nnnc1SCC1=C(C(=O)O)N2C(=O)C(NC(=O)C(O)c3ccccc3)C2SC1 (configuration not stated)
OUT: 0.997 (inactive)

IN: # iterate: "COC(=O)C1=C(C)NC(C)=C(C(=O)OC)C1c1ccccc1[N+](=O)[O-]"
OUT: 0.968 (inactive)

IN: # iterate: "Cc1coc2ccccc2c1=O"
OUT: 1.04 (inactive)

IN: # iterate: OC1C(O)C(O)C(O)C(O)C1O (configuration not stated)
OUT: 0.989 (inactive)

IN: # iterate: COc1cc([C@@H]2c3cc4c(cc3C(O[C@@H]3O[C@@H]5CO[C@@H](c6cccs6)OC5[C@H](O)[C@H]3O)C3COC(=O)[C@@H]32)OCO4)cc(OC)c1O (some centres not stated)
OUT: 1.03 (inactive)
